Target: Tlp10^LBD Y70A (Campylobacter jejuni, UniProt Q0PCA6, Y70A)
Experiment: biochemical
Type: binding, C. jejuni
// thresholds for Kd classes: group A (below 20 µM), group B (20 µM to below 40 µM), group C (40 µM or more)

>  <compound>
OC[C@H]1OC(O)[C@@H](O)[C@@H](O)[C@@H]1O (stereo partly drawn)

>  <cat>
group C

$$$$
>  <compound>
CC[C@H](C)[C@H](N)C(=O)O

>  <cat>
group B

$$$$
>  <compound>
N=C(N)NCCC[C@H](N)C(=O)O

>  <cat>
group A

$$$$
>  <compound>
C[C@H](O)[C@@H](O)[C@@H](O)[C@H](O)C=O

>  <cat>
group B

$$$$
>  <compound>
CC(=O)N[C@H]1[C@H]([C@H](O)[C@H](O)CO)OC(O)(C(=O)O)C[C@@H]1O (stereo partly drawn)

>  <cat>
group B

$$$$

**Q:** For this compound, which bin applies? "c1ncc2nc[nH]c2n1"
**A:** group A

**Q:** For this compound, which bin applies? "Cc1ncc(C[n+]2csc(CCO)c2C)c(N)n1"
**A:** group C

**Q:** For this compound, which bin applies? O=C(O)CC(O)C(=O)O (stereo not drawn) [malate]
**A:** group C

###

System: C. jejuni 11168-O
Format: cell-based
Details: nutrient-depleted chemotaxis assay, 2 mM ligand
propertyName: migration of Δtlp10^LBD strain towards ligand compared to wild-type

>  <smiles>
Cc1ncc(C[n+]2csc(CCO)c2C)c(N)n1

>  <testSystem>
C. jejuni 11168-O

>  <dataValue>
increase in migration

$$$$
>  <smiles>
N=C(N)NCCC[C@H](N)C(=O)O

>  <testSystem>
C. jejuni 11168-O

>  <dataValue>
increase in migration

$$$$

###

Target: Tlp10^LBD N120A (Campylobacter jejuni, UniProt Q0PCA6, N120A)
Assay: biochemical
Assay type: binding, C. jejuni
propertyName: Kd (µM)
Kindly provide the numeric value in µM only, without the unit symbol.

Below, 2 molecules whose answers are already recorded.
>  <molecule>
C[C@H](O)[C@@H](O)[C@@H](O)[C@H](O)C=O

>  <testSystem>
Tlp10^LBD N120A (Campylobacter jejuni, UniProt Q0PCA6, N120A)

>  <propertyName>
Kd

>  <dataValue>
19.2

$$$$
>  <molecule>
OC[C@H]1OC(O)[C@@H](O)[C@@H](O)[C@@H]1O (stereo partly drawn)

>  <testSystem>
Tlp10^LBD N120A (Campylobacter jejuni, UniProt Q0PCA6, N120A)

>  <propertyName>
Kd

>  <dataValue>
46.4

$$$$

**Q:** Give the reported value of Kd for this record: N[C@@H](CC(=O)O)C(=O)O [aspartate]
**A:** 48

###

Molecular target: Tlp10^LBD N120A (Campylobacter jejuni, UniProt Q0PCA6, N120A)
Assay: biochemical
Format: binding, C. jejuni
Details: read-out: KD Tlp10^LBD N120A; SPR, mean ± s.d., n = 3
propertyName: pKd
The scale used: pKd is minus the common logarithm of the concentration in molar units.

**Q:** Retrieve pKd on Tlp10^LBD N120A (Campylobacter jejuni, UniProt Q0PCA6, N120A); query O=C(O)CCC(=O)C(=O)O [α-ketoglutarate]
**A:** 3.24
